Each item that follows carries a reported Combination (Antibiotic/Inhibitor) MICs: antibiotic.
Test system: Proteus penneri NT6-2 – tet(X6)
Test: microbe, parasite or virus in culture
Assay type: cell-based
Measurement conditions: tigecycline in combination with the inhibitor, lowest FICI
Please state the figure in µg/mL; there is no need to write the unit.

IN: Quick one: give measured Combination (Antibiotic/Inhibitor) MICs: antibiotic for CN1CCN(CCCN2c3ccccc3Sc3ccc(Cl)cc32)CC1
OUT: 4

IN: Quick one: give measured Combination (Antibiotic/Inhibitor) MICs: antibiotic for C[C@]12CCC(=O)C=C1[C@@H]1C[C@@H]1[C@H]1[C@@H]3[C@@H]4C[C@@H]4[C@@]4(CCC(=O)O4)[C@@]3(C)CC[C@@H]12
OUT: 8

IN: Quick one: give measured Combination (Antibiotic/Inhibitor) MICs: antibiotic for Cc1c2c(c(O)c3c(O)cccc13)C(=O)[C@]1(O)C(=O)C(C(N)=O)=C(O)[C@@H](N(C)C)[C@@H]1C2 [Anhydrotetracycline]
OUT: 4

IN: Quick one: give measured Combination (Antibiotic/Inhibitor) MICs: antibiotic for O=C(c1ccc(OCCN2CCCCC2)cc1)c1c(-c2ccc(O)cc2)sc2cc(O)ccc12
OUT: 8

IN: Quick one: give measured Combination (Antibiotic/Inhibitor) MICs: antibiotic for [H]/N=C(/NCCCCC)N/N=C/c1c[nH]c2ccc(OC)cc12
OUT: 4

Others:
IN: Quick one: give measured Combination (Antibiotic/Inhibitor) MICs: antibiotic for CN1CCN(CCCN2c3ccccc3Sc3ccc(C(F)(F)F)cc32)CC1
OUT: 4

###

Test system: Salmonella enterica T-2a – tet(X4)
Test: microbe, parasite or virus in culture
Type: cell-based
Measurement conditions: with tigecycline
Measured attribute: FICI

IN: Quick one: give measured FICI for CN1CCN(CCCN2c3ccccc3Sc3ccc(Cl)cc32)CC1 [Prochlorperazine]
OUT: 1

IN: Quick one: give measured FICI for C[C@]12CCC(=O)C=C1[C@@H]1C[C@@H]1[C@H]1[C@@H]3[C@@H]4C[C@@H]4[C@@]4(CCC(=O)O4)[C@@]3(C)CC[C@@H]12 [Drosperinone]
OUT: 1.5

IN: Quick one: give measured FICI for O=C(c1ccc(OCCN2CCCCC2)cc1)c1c(-c2ccc(O)cc2)sc2cc(O)ccc12 [Raloxifene]
OUT: 1.5

IN: Quick one: give measured FICI for CN1CCN(CCCN2c3ccccc3Sc3ccc(C(F)(F)F)cc32)CC1 [Trifluoperazine]
OUT: 1

IN: Quick one: give measured FICI for Cc1c2c(c(O)c3c(O)cccc13)C(=O)[C@]1(O)C(=O)C(C(N)=O)=C(O)[C@@H](N(C)C)[C@@H]1C2 [Anhydrotetracycline]
OUT: 0.8

IN: Quick one: give measured FICI for [H]/N=C(/NCCCCC)N/N=C/c1c[nH]c2ccc(OC)cc12 [Tegaserod]
OUT: 0.5

###

Test system: E. coli TOP10 containing plasmid pBAD-TOPO-Tet(X4)
Test: Broth microdilution MIC and checkerboard assay
Format: cell-based, Escherichia coli
Measurement conditions: Escherichia coli, read-out: Tet(X) inhibitor MIC, alone; induced with 0.2%w/v L-arabinose
Each item that follows carries a reported MIC.

IN: For E. coli TOP10 containing plasmid pBAD-TOPO-Tet(X4), give MIC of the listed compound: O=C(c1ccc(OCCN2CCCCC2)cc1)c1c(-c2ccc(O)cc2)sc2cc(O)ccc12
OUT: > 128 µg/mL

IN: For E. coli TOP10 containing plasmid pBAD-TOPO-Tet(X4), give MIC of the listed compound: Cc1c2c(c(O)c3c(O)cccc13)C(=O)[C@]1(O)C(=O)C(C(N)=O)=C(O)[C@@H](N(C)C)[C@@H]1C2 [Anhydrotetracycline]
OUT: 8 µg/mL

Others:
IN: For E. coli TOP10 containing plasmid pBAD-TOPO-Tet(X4), give MIC of the listed compound: COc1cc(C)c2c(Oc3cccc(C(F)(F)F)c3)c(OC)cc(NC(C)CCCN)c2n1 (stereo not shown)
OUT: 16 to 64 µg/mL

IN: For E. coli TOP10 containing plasmid pBAD-TOPO-Tet(X4), give MIC of the listed compound: [H]/N=C(/NCCCCC)N/N=C/c1c[nH]c2ccc(OC)cc12
OUT: 16 to 64 µg/mL

###

Assayed system: Tet(X4) (Escherichia coli, UniProt A0A3T0V9Y5)
Test: biochemical
Measurement conditions: IC50, UPLC assay, 20 μM tigecycline, 50 nM Tet(X4), 100 μM NADPH, 5 mM MgCl2, 1 μM FAD, 100 mM TAPS pH 8.5
Measured attribute: IC50

IN: Quick one: give measured IC50 for CCN(CC)CCNC(=O)c1c(C)[nH]c(/C=C2\C(=O)Nc3ccc(F)cc32)c1C
OUT: > 100 µM

###

Assayed system: Tet(X4) (Escherichia coli, UniProt A0A3T0V9Y5)
Test: biochemical
Measurement conditions: 20 μM tigecycline, 50 nM Tet(X4), 100 μM NADPH, 5 mM MgCl2, 1 μM FAD, 100 mM TAPS pH 8.5; read-out: IC50, UPLC assay
Cut-off 40 µM on IC50: below means yes, at or above means no.

Check out these entries, answers already filled in.
IN: IC50 under 40 µM? Item: O=C(NCc1c(F)cc(F)cc1F)c1cn2c(c(O)c1=O)C(=O)N1[C@H]3CC[C@H](C3)O[C@@H]1C2 [Bictegravir]
OUT: no

IN: IC50 under 40 µM? Item: CN(C)CCCN1c2ccccc2Sc2ccccc21 [Promazine]
OUT: no

IN: IC50 under 40 µM? Item: CC(CN(C)C)CN1c2ccccc2S(=O)(=O)c2ccccc21 (stereo not shown) [Oxomemazine]
OUT: no

IN: IC50 under 40 µM? Item: CN1CCN(CCCN2c3ccccc3Sc3ccc(C(F)(F)F)cc32)CC1 [Trifluoperazine]
OUT: no

IN: IC50 under 40 µM? Item: COC1=CC(=O)c2ccccc2C1=O [2-Methoxy-1,4-naphthoquinone]
OUT: no

IN: IC50 under 40 µM? Item: [H]/N=C(/NCCCCC)N/N=C/c1c[nH]c2ccc(OC)cc12 [Tegaserod]
OUT: yes

IN: IC50 under 40 µM? Item: Cn1cc(C2=C(c3cn(C4CCN(Cc5ccccn5)CC4)c4ccccc34)C(=O)NC2=O)c2ccccc21 [Enzastaurin]
OUT: no

IN: IC50 under 40 µM? Item: O=c1c2ccccc2[se]n1-c1ccccc1 [Ebselen]
OUT: yes

Others:
IN: IC50 under 40 µM? Item: C=CC(=O)Nc1cccc(Oc2nc(Nc3ccc(N4CCN(C)CC4)cc3)nc3ccsc23)c1 [Olmutinib]
OUT: no

IN: IC50 under 40 µM? Item: CC1=CC(=O)c2c(O)cccc2C1=O [Plumbagin]
OUT: yes

IN: IC50 under 40 µM? Item: Cc1c2c(c(O)c3c(O)c(Br)ccc13)C(=O)[C@@]1(O)C(=O)C(C(N)=O)=C(O)[C@@H](N(C)C)[C@@H]1C2 [9-Bromo-anhydrotetracycline]
OUT: yes

###

Each item that follows carries a reported Combination (Antibiotic/Inhibitor) MICs: antibiotic.
System: Acinetobacter baumannii NT5-1 – tet(X5)
Test: microbe, parasite or virus in culture
Format: cell-based
Measurement conditions: tigecycline in combination with the inhibitor, lowest FICI
Experimental: MIC tests and checkerboard assays were performed in U-bottom, 96-well microtiter plates using a modified broth microdilution protocol following CLSI guidelines. Cation-adjusted Mueller-Hinton Broth (CAMHB) was prepared fresh on the day of testing.[74] […] As a measure of synergy, fractional inhibitory concentration index (FICI) was calculated as FICA + FICB, where FICA and FICB are the MICcombination/MICalone for each agent, respectively.[76] […]
Please state the figure in µg/mL; there is no need to write the unit.

IN: Quick one: give measured Combination (Antibiotic/Inhibitor) MICs: antibiotic for CN1CCN(CCCN2c3ccccc3Sc3ccc(C(F)(F)F)cc32)CC1 [Trifluoperazine]
OUT: 1

IN: Quick one: give measured Combination (Antibiotic/Inhibitor) MICs: antibiotic for Cc1c2c(c(O)c3c(O)cccc13)C(=O)[C@]1(O)C(=O)C(C(N)=O)=C(O)[C@@H](N(C)C)[C@@H]1C2 [Anhydrotetracycline]
OUT: 2

IN: Quick one: give measured Combination (Antibiotic/Inhibitor) MICs: antibiotic for [H]/N=C(/NCCCCC)N/N=C/c1c[nH]c2ccc(OC)cc12 [Tegaserod]
OUT: 1

IN: Quick one: give measured Combination (Antibiotic/Inhibitor) MICs: antibiotic for O=C(c1ccc(OCCN2CCCCC2)cc1)c1c(-c2ccc(O)cc2)sc2cc(O)ccc12 [Raloxifene]
OUT: 2

Others:
IN: Quick one: give measured Combination (Antibiotic/Inhibitor) MICs: antibiotic for C[C@]12CCC(=O)C=C1[C@@H]1C[C@@H]1[C@H]1[C@@H]3[C@@H]4C[C@@H]4[C@@]4(CCC(=O)O4)[C@@]3(C)CC[C@@H]12 [Drosperinone]
OUT: 4

IN: Quick one: give measured Combination (Antibiotic/Inhibitor) MICs: antibiotic for CN1CCN(CCCN2c3ccccc3Sc3ccc(Cl)cc32)CC1 [Prochlorperazine]
OUT: 1
